Assayed System: PDE5 (human recombinant) (Homo sapiens, UniProt O76074)
Experimental Protocol: Inhibition of PDE5 activity: radioactive Scintillation Proximity Assay (SPA)
Type: biochemical
Applied Conditions: SPA assay (all Examples); read-out: PDE5 mean pIC50 (converted)
Property Label: IC50

Known IC50 results, listed for orientation:
COc1cccc(Nc2c(C(N)=O)cnc3ccc(C(=O)Nc4ccccc4)cc23)c1 [Example 2]; > 31.6 µM
COc1cccc(Nc2c(C(N)=O)cnc3ccc(C(=O)NC(C)(C)C)cc23)c1 [Example 3]; > 31.6 µM
CNC(=O)c1ccc2ncc(C(N)=O)c(Nc3cccc(OC)c3)c2c1 [Example 6]; > 31.6 µM

Continue with the next compound.
COc1cccc(Nc2c(C(N)=O)cnc3ccc(C(=O)N4CCOCC4)cc23)c1 [Example 1] has a reported IC50 of > 31.6 µM
